All values here come from patent US9113629B2.

The entries below come with measured pest or weed control at 140 g/ha values attached.
Tested on: Key Broadleaf Weed and Crop Species
Assay: Post-emergent Test II herbicidal activity (Table 5)
Assay type: in vivo
Settings: post-emergence, 336 h; ABUTH: velvetleaf (Abutilon theophrasti); application rate 140 g ai/ha; 14 days after application; read-out: Visual Growth Reduction (%) 14 Days After Application, ABUTH

# annotated cases, reported pest or weed control at 140 g/ha shown
COC(=O)c1nc(-c2ccc(F)c(F)c2F)c(F)c(N)c1Cl | 95 to 100%
COC(=O)c1nc(-c2ccc(OC(F)F)c(F)c2F)c(F)c(N)c1Cl | 45 to 59%
Nc1c(F)c(-c2ccc([N+](=O)[O-])cc2)nc(C(=O)O)c1Cl | 0 to 29%

### Prompt Returns the measured pest or weed control at 140 g/ha for the input compound. Input: `Nc1c(F)c(-c2ccc(Br)c(F)c2)nc(C(=O)O)c1Cl`
### Response 95 to 100%

### Prompt Returns the measured pest or weed control at 140 g/ha for the input compound. Input: `Nc1cc(-c2ccc(Br)c(F)c2F)nc(C(=O)O)c1Cl`
### Response 95 to 100%
